These measurements were taken from patent US20180016327A1.

# measured-on: T1, human C5 (human, UniProt P01031 19-673; P01031 678-1676, Beta and alpha chains are disulfide-linked and the protein is glycosylated.)
# T1 construct: Either in-house recombinant C5 or plasma derived C5 (CALBIOCHEM) was used; also called recombinant human C5; plasma derived human C5
# run-description: Biacore, captured antibody, pH 7.4, 37 C;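 also: biacore binding response of anti-C5 antibody light chain variants captured on chip with human C5 injected, ACES running buffer containing 1.2 mM CaCl₂, parent light chain antibody set to 100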
Items are presented alongside their recorded % binding (parent = 100).

binder	% binding (parent = 100) / %
CFP0018 18L 96H (antibody, V domains shown) VH: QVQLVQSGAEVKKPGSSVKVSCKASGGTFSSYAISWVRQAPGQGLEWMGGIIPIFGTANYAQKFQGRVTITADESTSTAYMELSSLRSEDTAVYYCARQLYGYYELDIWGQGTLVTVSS VL: DIQMTQSPSSLSASVGDRVTITCRASQSISDDLAWYQQKPGKAPKLLIYEASSLQSGVPSRFSGSGSGTDFTLTISSLQPEDFATYYCQQYNSYPHTFGQGTKVEIK	114
CFP0015 15L 92Q (antibody, V domains shown) VH: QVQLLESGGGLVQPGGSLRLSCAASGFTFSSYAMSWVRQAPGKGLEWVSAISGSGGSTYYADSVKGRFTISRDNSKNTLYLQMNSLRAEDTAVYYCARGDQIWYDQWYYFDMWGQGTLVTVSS VL: DIQMTQSPSSLSASVGDRVTITCRASQSIEDDLAWYQQKPGKAPKLLIYEASNLQSGVPSRFSGSGSGTDFTLTISSLQPEDFATYYCQQYQSSPLTFGQGTKVEIK	59.7
CFP0021 21L 93G (antibody, V domains shown) VH: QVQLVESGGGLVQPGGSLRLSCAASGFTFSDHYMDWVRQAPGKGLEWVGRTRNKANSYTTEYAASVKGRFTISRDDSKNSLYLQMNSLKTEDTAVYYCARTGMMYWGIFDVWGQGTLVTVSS VL: DIQMTQSPSSLSASVGDRVTITCRASQSIEDDLAWYQQKPGKAPKLLIYHASTLQSGVPSRFSGSGSGTDFTLTISSLQPEDFATYYCQQHDGYPLTFGQGTKVEIK	37.9
